FYI, the data here is from PubChem BioAssay.

Test: binders from COS7 lysate, DM2A8 probe, primary screen, torsin A project, cell lysate, small-molecule microarray, fluorescence 635/667 (AID 1065)
Conditions: higher = more signal, COS7 lysate expressing mutant human TOR1A
Overview of reported composite z-score across a group of compounds:

{"columns": ["Compound", "composite z-score"],
 "data": [
  ["CC(C)C(=O)N[C@H]1CCCN1C(=O)C=Cc1ccccc1", 0.253],
  ["COC(=O)CC=C[C@@H](C)[C@@H](C=NOC(C)CN1CCCCc2nc(C)c(C)cc21)NS(=O)(=O)c1ccc(C)cc1 (stereo partly drawn)", 0.751],
  ["COc1ccc(COC(=O)NN=C2C[C@@H](O)[C@@H](O)[C@@H]3[C@@H]4C(=O)N(Cc5ccc6c(c5)OCO6)C(=O)[C@@H]4CC[C@H]23)cc1", -0.197],
  ["COc1ccc(OC[C@@H]2CC3[C@@H](c4ccc(Br)cc4)[C@H](C)CC[C@H]3C(=O)O2)cc1 (stereo partly drawn)", 0.138],
  ["CC(C)CON=C1C[C@@H](O)[C@@H](O)[C@@H]2[C@@H]3C(=O)N(Cc4ccccc4)C(=O)[C@@H]3CC[C@H]12", 0.0791],
  ["COC(=O)[C@@H]1CC[C@H](C)[C@@H](c2ccc(Br)cc2)N1", -0.288],
  ["COC(=O)[C@H](C)NC(=O)CCC1CC(OC(=O)NCCc2ccc(F)cc2)CC2(CCCC(COC(=O)NCC3CCCCC3)O2)O1 (stereo partly drawn)", 0.437],
  ["COc1cccc([C@H](O)Cn2cc(-c3ccc(CON=C(C)C)cc3)nn2)c1", 0.173]
]}

----------
Experiment: small-molecule microarray binders of probe aXIP, primary screen, biochemical, NeuroSMM set, 635/667 nm fluorescence (AID 1119);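 also: probe is the protein aXip251-270 applied at 1 µg/mL to compound-printed slides; binding of probe to printed compounds measured as 667 nm fluorescence plus signal to noise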
Conditions: higher = more signal, called active from +8 up or from −8 down
Short version: composite Z-score at least -0.07 is 1 (yes), less is 0 (no).

{"columns": ["Compound", "Label Class"],
 "data": [
  ["CCOC(=O)CCN1C(=O)[C@H]2[C@H]3[C@H](O)[C@H](O)CC(=NOCC=C(C)CCC=C(C)C)[C@@H]3CC[C@H]2C1=O", "0 (no)"],
  ["CCOC(=O)CCN1C(=O)[C@H]2[C@H]3[C@H](O)[C@H](O)CC(=NNC(=O)OCc4ccc(OC)cc4)[C@H]3CC[C@H]2C1=O", "1 (yes)"],
  ["COC(=O)[C@H](C)NC(=O)CCC1CC(OC(=O)NCc2cccc3ccccc23)CC2(CCCC(COC(=O)NCCOc3ccccc3)O2)O1 (stereo partly drawn)", "1 (yes)"],
  ["CC(C)=NO[C@H](C)c1cn([C@@H]2COC[C@H]2O)nn1", "0 (no)"],
  ["CON=C(C)CCC(=O)OC[C@H]1O[C@H](C#Cc2ccccc2)C=C[C@@H]1Oc1ccc(C)cc1", "1 (yes)"],
  ["COC(=O)CC=C[C@@H](C)[C@@H](C=NOC(C)CN1CCCc2nc(C)c(C)cc21)NS(=O)(=O)c1ccc(C)cc1 (stereo partly drawn)", "1 (yes)"],
  ["CC(=O)OC[C@H]1O[C@H](CC=NOC[C@@H](O)COCc2ccco2)C=C[C@@H]1OC(C)=O", "1 (yes)"],
  ["O=C1C=C[C@@H](O)[C@@H]2[C@@H]3C(=O)N(c4cccc(Oc5ccccc5)c4)C(=O)[C@@H]3CC[C@@H]12", "0 (no)"]
]}

----------
Experiment: HepG2 liver cancer cell viability effects, profiling panel, resazurin fluorescence, 24 h, PK04 Diversity Set (AID 1172); also: test concentration not given here
Conditions: higher = more signal
Overview of reported z-score across a group of compounds:

{"columns": ["Compound", "z-score"],
 "data": [
  ["CCOC(=O)[C@H](CC(C)C)NC(=O)CCC1CC(OC(=O)NCCc2ccc(F)cc2)CC2(CCCC(COC(=O)NCc3cccc(C(F)(F)F)c3)O2)O1 (stereo not given in full)", 0.0989],
  ["CC(C)=CCCC(C)=CCON=C1[C@H]2CCn3c(=O)n(-c4ccccc4)c(=O)n3[C@H]2[C@H](O)[C@@H]2O[C@H]12", -0.792],
  ["CCN1C(=O)[C@H]2[C@H]3[C@H](O)[C@H](O)CC(=NO[C@@H]4O[C@H](CO)[C@@H](O)[C@H](O)[C@H]4O)[C@H]3CC[C@H]2C1=O", -0.171],
  ["COc1ccc(OC[C@@H](CO)OC)cc1", -0.279],
  ["COc1ccc(O[C@H]2C=C[C@@H](C#Cc3ccccc3)O[C@@H]2CO)cc1", 0.124],
  ["O=C1C[C@@H](O)[C@@H](O)[C@@H]2[C@@H]3C(=O)N(c4ccc(F)cc4F)C(=O)[C@@H]3CC[C@H]12", -0.635],
  ["CCOC(=O)NN=C1C[C@@H](O)[C@@H](O)[C@@H]2[C@@H]3C(=O)N(c4ccc(F)cc4F)C(=O)[C@@H]3CC[C@H]12", 0.99],
  ["CCOC(=O)CCN1C(=O)[C@H]2[C@H]3[C@H](O)[C@H](O)CC(=NOCC=C(C)CCC=C(C)C)[C@@H]3CC[C@H]2C1=O", 0.046],
  ["COC(=O)[C@H](CCSC)NC(=O)CC=C[C@@H](C)CO", -0.838],
  ["C[C@H]1CC[C@H]2C(=O)N[C@H](Cc3ccccc3)C(=O)N2[C@@H]1c1ccccc1", -0.69],
  ["COc1ccc(COC(=O)NN=C2C[C@@H](O)[C@@H](O)[C@@H]3[C@@H]4C(=O)N([C@@H](C)c5ccccc5)C(=O)[C@@H]4CC[C@@H]23)cc1", -0.295],
  ["COC(=O)CC=C[C@@H](C)[C@@H](C=NOC[C@@H](C)[C@H](OCc1ccccc1)C(C)C)OC", -1.01],
  ["C#CCCCON=C1C[C@@H](O)[C@@H](O)[C@@H]2[C@@H]3C(=O)N([C@@H](C)c4ccccc4)C(=O)[C@@H]3CC[C@@H]12", -0.121],
  ["C[C@@H]1CC[C@H]2C(=O)O[C@@H](COc3ccc(C(C)(C)C)cc3)CN2[C@H]1c1ccc(Br)cc1", 0.7],
  ["CC(C)[C@@H](OCc1ccccc1)[C@H](C)C=NOC[C@@H](O)[C@H]1O[C@@H]2OC(C)(C)O[C@@H]2[C@H]1O", -0.752]
]}

----------
Assay: basal RPMI8226 viability, no added stimulus, profiling panel, cell-based, calcein-AM fluorescence, 48 h, PK04 Diversity Set (AID 1166);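 also: cells grown under basal conditions without added stimulus; test concentration not given here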
Details: RPMI8226 myeloma viability, higher = more signal
Decide using z-score alone. Strictly below -1: Satisfied. Equal to or above -1: Not satisfied.

{"columns": ["Compound", "Label Class"],
 "data": [
  ["CC(C)[C@H](NC(=O)OC(C)(C)C)[C@@H](O)CC(=O)C(C)(C)C", "Not satisfied"],
  ["COCOc1ccc(Br)cc1C(=O)C=Cc1ccc2c(c1)OCO2", "Satisfied"],
  ["CC(=O)OC[C@H]1O[C@H](CC=NO[C@@H](C)c2cc(-c3c(C)cc(C)cc3C)no2)C=C[C@@H]1OC(C)=O", "Satisfied"],
  ["CCN1C(=O)[C@H]2[C@H]3[C@H](O)[C@H](O)CC(=NOCC=C(C)CCC=C(C)C)[C@@H]3CC[C@H]2C1=O", "Not satisfied"],
  ["C[C@H]1CC[C@@H](C(=O)O)N[C@@H]1c1cccc(N2CCCC2=O)c1", "Satisfied"],
  ["CC(=O)OC[C@H]1O[C@H](CCON=C(C)CCN2CCCc3nc(C)c(C)cc32)C=C[C@@H]1OC(C)=O", "Satisfied"],
  ["CO[C@H]1COC(=O)CC=C[C@@H](C)COC(=O)[C@H]2CCCN2C(=O)CC=C[C@H]1C", "Not satisfied"],
  ["CCOC(=O)[C@H](CC(C)C)NC(=O)CCC1CC(OC(=O)NCc2ccc3c(c2)OCO3)CC2(CCCC(COC(=O)NCCc3ccc(Cl)cc3)O2)O1 (stereo partly drawn)", "Not satisfied"]
]}

----------
Biological target: Pro-neuregulin-1, membrane-bound isoform (Homo sapiens) (UniProt Q02297)
Sequence (Q02297 whole entry, looked up, canonical isoform): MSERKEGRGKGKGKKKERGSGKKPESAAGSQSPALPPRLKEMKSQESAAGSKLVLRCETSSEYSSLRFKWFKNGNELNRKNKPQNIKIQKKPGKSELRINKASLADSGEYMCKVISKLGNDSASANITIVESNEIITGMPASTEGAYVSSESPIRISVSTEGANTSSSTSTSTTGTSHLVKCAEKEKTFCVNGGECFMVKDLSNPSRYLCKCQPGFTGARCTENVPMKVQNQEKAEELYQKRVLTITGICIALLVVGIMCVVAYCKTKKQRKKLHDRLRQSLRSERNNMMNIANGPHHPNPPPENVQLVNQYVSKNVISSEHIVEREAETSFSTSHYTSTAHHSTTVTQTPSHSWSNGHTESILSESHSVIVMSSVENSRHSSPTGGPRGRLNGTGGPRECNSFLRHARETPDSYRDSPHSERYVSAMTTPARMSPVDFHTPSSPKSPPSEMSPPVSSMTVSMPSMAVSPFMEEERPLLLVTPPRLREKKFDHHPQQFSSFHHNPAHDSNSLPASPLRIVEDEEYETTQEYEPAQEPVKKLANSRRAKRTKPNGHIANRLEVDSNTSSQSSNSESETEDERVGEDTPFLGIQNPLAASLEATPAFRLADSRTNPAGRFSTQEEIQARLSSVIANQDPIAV
Test: NRG1 binders on small-molecule microarrays, primary screen, psychiatric disease protein project, biochemical, small-molecule microarray, fluorescence 635/667 (AID 1075);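 also: score combines 667 nm spot fluorescence with signal to noise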
Conditions: NRG1 binding, 635 nm fluorescence, higher = more signal
Overview of reported composite z-score across a group of compounds:

{"columns": ["Compound", "composite z-score"],
 "data": [
  ["CC(C)=NO[C@H](C)c1cn([C@@H]2COC[C@H]2O)nn1", 0.0493],
  ["CCOC(=O)NN=C1C[C@@H](O)[C@@H](O)[C@@H]2[C@@H]3C(=O)N(C[C@@H]4CCCO4)C(=O)[C@@H]3CC[C@H]12", 0.203],
  ["CCOC(=O)CCN1C(=O)[C@H]2[C@H]3[C@H](O)[C@H](O)CC(=NOCC=C(C)CCC=C(C)C)[C@@H]3CC[C@H]2C1=O", 0.258],
  ["COC(=O)[C@H](C)NC(=O)CCC1CC(OC(=O)NCCc2ccc(F)cc2)CC2(CCCC(COC(=O)NCC3CCCCC3)O2)O1 (stereo partly drawn)", 0.618],
  ["COc1ccc(COC(=O)NN=C2C[C@@H](O)[C@@H](O)[C@@H]3[C@@H]4C(=O)N(C[C@@H]5CCCO5)C(=O)[C@@H]4CC[C@@H]23)cc1", 0.393],
  ["COC(=O)C(C(=O)OC)C1CCCC(=O)C1 (stereo not drawn)", -0.146],
  ["C[C@H]1CC[C@@H](C(=O)O)N[C@@H]1c1ccc(C#Cc2ccccc2)cc1", 0.736],
  ["CC(=O)OC[C@H]1O[C@H](CC=NO[C@H](C)c2cn([C@@H]3COC[C@H]3O)nn2)C=C[C@@H]1OC(C)=O", -0.0528]
]}
